# System: HOP-62 NSCLC
# ASSAY_PROTOCOL: NCI tumour cell line growth inhibition, 48 h
The entries below are paired with their reported TGI.
QUANTITY_NAME: TGI

COMPOUND	STUDY_TARGET	VALUE
CCCCCCCCCCCC[N+](CCCCCCCCCCCC)=C1SCCS1	HOP-62 NSCLC	30.5 µM
CCOC(=O)c1cc2c(cc1Cl)SC(=Nc1ccccc1)N(S(=O)(=O)c1ccc(Br)s1)S2(=O)=O	HOP-62 NSCLC	44.2 µM
N#CCCC1(CCC#N)CCCCCCCCC(CCC#N)(CCC#N)C(O)C1O (configuration not stated)	HOP-62 NSCLC	> 100 µM
CC1C=CC(OC(=O)C(C)(O)CCC(O)(C(=O)OC2CC(O)C(C(C)C)CC2(C)O)C(C)C)(C(C)C)CC1 (configuration not stated)	HOP-62 NSCLC	1.66 µM
COc1cc(O)c2c(=O)c(OC)c(-c3ccc(OC)c(OC)c3)oc2c1	HOP-62 NSCLC	> 100 µM
COc1cc(C2(C)SCCCS2)cc(OC)c1OC	HOP-62 NSCLC	> 100 µM
O=C1CCCC/C1=C\c1ccc(Cl)c(Cl)c1	HOP-62 NSCLC	> 100 µM
COc1ccc2c(c1)C(=O)c1c-2c(OCCN(C)C)nc2ccccc12	HOP-62 NSCLC	12.7 µM
Oc1cc(-n2cccn2)c(O)cc1-n1cccn1	HOP-62 NSCLC	> 76.1 µM
Fc1cccc(F)c1C(Nc1nncs1)Nc1nncs1	HOP-62 NSCLC	> 100 µM
N#C/C(C(=S)NCc1ccccc1)=C(/N)N1CCCC1	HOP-62 NSCLC	> 100 µM
CC(C)C[C@H](NC(=O)CCn1ccc2ccccc2c1=O)B(O)O	HOP-62 NSCLC	22.1 µM
CCCCNc1nc(NC2OCC(OC(C)=O)C(OC(C)=O)C2OC(C)=O)c(N=O)c(=O)n1C (configuration not stated)	HOP-62 NSCLC	> 10 µM
Clc1ccc2oc(CCc3ccccc3)nc2c1	HOP-62 NSCLC	> 100 µM
COc1ccc2c3c1O[C@H](c1ccc(O)cc1)[C@H]3[N+](C)(C)CC2	HOP-62 NSCLC	> 100 µM
N/C(=N\OC(=O)c1ccccc1)C(Cc1ccccc1)C(=O)NOC(=O)c1ccccc1 (configuration not stated)	HOP-62 NSCLC	2.83 µM
Oc1c(-c2cc(C(F)(F)F)[nH]n2)cc(Cl)c(OCc2ccc(Cl)cc2)c1-c1ccc(Cl)c(C(F)(F)F)c1	HOP-62 NSCLC	3.04 µM
c1cc(N2CCN(c3ccc(C4=NCCCN4)cc3)CC2)ccc1C1=NCCCN1	HOP-62 NSCLC	> 100 µM
Cc1ccncc1C(N)=O	HOP-62 NSCLC	> 100 µM
Cc1cc2c(c(C(N)=O)c1C)-c1cc(Cl)cc(Cl)c1C2=O	HOP-62 NSCLC	> 100 µM
COc1cccc(C(=O)C#Cc2cnc(OC)nc2OC)c1	HOP-62 NSCLC	47.8 µM
O=c1[nH]c2nc3ccccc3c(=O)n2/c1=C/c1ccco1	HOP-62 NSCLC	> 100 µM

----------
# Test system: 786-0 renal
# ASSAY_PROTOCOL: NCI tumour cell line growth inhibition, 48 h; in the data active means GI50 below about 0.43 µM; inactive means the rest
Classes used: active, inactive

CN1CCN(CCCCCN=c2cc3c(=O)n(CCCCCN4CCN(C)CC4)c(=O)c4c(NCCCCCN5CCN(C)CC5)cc5c(O)n(CCCCCN6CCN(C)CC6)c(=O)c2c5c4-3)CC1 inactive
Oc1cccc2c1NCCC2 inactive
O=C(Nc1ccccc1OC(=O)c1ccccc1)c1ccccc1 inactive
COc1cc2ncc3c(nc4sccn43)c2cc1OC inactive
COc1cccc(Oc2ccccc2NC(=O)CNC(=O)c2cccc3ccccc23)c1 active
COc1cc(-c2nn(-c3cccc(NC(=O)CCN4CCN(Cc5ccccc5)CC4)c3)cc2-c2ccncc2)ccc1Cl inactive
COc1ccc(/C=C(\C)[N+](=O)[O-])cc1OC inactive

----------
The entries below are paired with their reported TGI.
# Test system: U251 CNS
# ASSAY_PROTOCOL: NCI tumour cell line growth inhibition, 48 h
QUANTITY_NAME: TGI

COMPOUND	QUANTITY_NAME	VALUE
N/C(=N\OC(=O)c1ccccc1)C(Cc1ccccc1)C(=O)NOC(=O)c1ccccc1 (centres undefined)	TGI	2.87 µM
CC1=C(C(=O)Nc2ccc(Cl)c(Cl)c2)C(c2ccc([N+](=O)[O-])cc2)C(C(=O)Nc2ccc(Cl)c(Cl)c2)=C(C)N1	TGI	11.5 µM
Clc1ccc(C2ON=C(c3ccccc3)N2C23CC4CC(CC(C4)C2)C3)cc1 (centres undefined)	TGI	> 10 µM
COC(=O)Cc1c(-c2c(CC(=O)OC)c3ccccc3n2C2OC(COC(C)=O)C(OC(C)=O)C(OC(C)=O)C2OC(C)=O)[nH]c2ccccc12 (centres undefined)	TGI	> 100 µM
COc1cc(Nc2nc3cc(C(F)(F)F)ccc3n3cccc23)cc(OC)c1OC	TGI	> 100 µM
CN1CCc2nc3sc(C(N)=O)c(N)c3c(-c3cccs3)c2C1	TGI	> 100 µM
COc1cc(Oc2nc3ccc(C(F)(F)F)cc3nc2-c2ccccc2)cc(OC)c1OC	TGI	28.5 µM
Cc1ccc(NC(=O)C(=O)C(C(=O)/C=C/c2ccccc2)C2OC(=O)c3ccccc32)c(C)c1 (centres undefined)	TGI	> 100 µM
c1ccc(CC2COC(c3cccs3)=N2)cc1 (centres undefined)	TGI	> 100 µM

----------
Target or system U251 CNS; recorded quantity GI50.
QUANTITY_NAME: GI50

COc1cc2c(cc1F)C(c1ccccc1Cl)=Nc1c(n[nH]c1C)N2 583 nM
COc1cc(C(=O)Nc2cc(O)c(CC=C(C)C)c(O)c2)cc2c1O[C@]1(C)CC[C@@H](O)C(C)(C)[C@H]1C2 39.9 nM
COc1cc(/C=C/c2ccc3c(Br)cc(Br)c(O)c3n2)ccc1O 636 nM
COc1cc2cc(Oc3ccc(NC(=O)c4ccc(Cl)c(Cl)c4)cc3)c(C)nc2cc1OC > 100000 nM
CC(C)C[C@H](NC(=O)CCn1ccc2ccccc2c1=O)B(O)O 4230 nM

----------
# Tested on: HCT-116 colon
# ASSAY_PROTOCOL: NCI tumour cell line growth inhibition, 48 h
QUANTITY_NAME: TGI

COMPOUND	QUANTITY_NAME	VALUE
Oc1cccc2c1NCCC2	TGI	> 100 µM
N#CCCNc1nonc1-c1nc2ccccc2n1CC(=O)c1ccc(NC(=O)[C@@H](N)CCCCN)cc1	TGI	> 100 µM
Oc1c(-c2cc(C(F)(F)F)[nH]n2)cc(Cl)c(OCc2ccc(Cl)cc2)c1-c1ccc(Cl)c(C(F)(F)F)c1	TGI	0.705 µM
C[C@@H]1Cc2cc(O)ccc2[C@H]2CC[C@]3(C)/C(=C/COCCN(C)C)CC[C@H]3[C@H]12 (tested in a mixture with another compound)	TGI	0.78 µM
CCOC(=O)c1c[nH]c2ccc3c(c2c1=O)S(=O)(=O)CC3 (tested in a mixture with another compound)	TGI	> 100 µM
Cc1ccc(NC(=O)C(=O)C(C(=O)/C=C/c2ccccc2)C2OC(=O)c3ccccc32)c(C)c1 (stereo not given)	TGI	> 100 µM
C/C(=N\O)c1cccc(Nc2cc(-n3ccnc3)c3ccccc3n2)c1	TGI	26.8 µM
CCC(=O)Nc1ccc(N2C(=O)/C(=C/c3ccc(OC)cc3)N=C2c2ccccc2)cc1	TGI	8.9 µM
O=C(Cc1nc2ccccc2o1)C(=O)Nc1cccc(C(F)(F)F)c1	TGI	> 100 µM
COc1cc(-c2nn(-c3cccc(NC(=O)CCN4CCN(Cc5ccccc5)CC4)c3)cc2-c2ccncc2)ccc1Cl	TGI	1.75 µM
C[C@@H]1O[C@@H](O[C@@H]2[C@@H](O)[C@H](OCCc3ccc(O)c(O)c3)O[C@H](CO)[C@H]2OC(=O)/C=C/c2ccc(O)c(O)c2)[C@H](O)[C@H](OC2OC[C@](O)(CO)[C@H]2O)[C@H]1O (stereo not given in full)	TGI	65.4 µM
COc1ccc(-c2cc(=O)c3c(O)cccc3o2)c(OC)c1OC	TGI	> 100 µM
CC1C=CC(OC(=O)C(C)(O)CCC(O)(C(=O)OC2CC(O)C(C(C)C)CC2(C)O)C(C)C)(C(C)C)CC1 (stereo not given)	TGI	0.449 µM
CC1=C(CC2C(=O)N(c3ccccc3)S(=O)(=O)NC2C)C(=O)N(c2ccccc2)S(=O)(=O)N1C (stereo not given)	TGI	> 100 µM
Cc1ccc(C2C3Cc4ccccc4C3=NN2c2ccc(S(=O)(=O)/N=c3\scc(-c4ccccc4)n3-c3ccccc3)cc2)cc1 (stereo not given)	TGI	> 100 µM
CCOC(=O)C1Nc2ccccc2[C@H]2OCC[C@@H]12 (stereo not given in full)	TGI	> 100 µM
c1ccc2c(c1)CCc1c-2n[nH]c1-c1[nH]nc2c1CCc1ccccc1-2	TGI	> 100 µM
O=c1[nH]c2nc3ccccc3c(=O)n2/c1=C/c1ccco1	TGI	> 100 µM
Cc1[nH]nc(-c2ccon2)c1N=O	TGI	56.8 µM
COc1ccc(/C=C(\C)[N+](=O)[O-])cc1OC	TGI	3.46 µM
CC(C)C[C@H](NC(=O)CCn1ccc2ccccc2c1=O)B(O)O	TGI	19.8 µM
NC(N)=NCCC(O)(P(=O)(O)O)P(=O)(O)O	TGI	> 100 µM
Clc1ccc(C2ON=C(c3ccccc3)N2C23CC4CC(CC(C4)C2)C3)cc1 (stereo not given)	TGI	> 10 µM
CC(=O)O[C@H]1CC[C@@]2(C)C(=CC[C@@H]3[C@@H]2CC[C@]2(C)c4nc(Cl)ccc4C[C@@H]32)C1	TGI	> 100 µM
COc1ccc(Nc2ccnc(N3CCN(c4ccnc5cc(Cl)ccc45)CC3)n2)cc1	TGI	3.27 µM
Oc1cc(-n2cccn2)c(O)cc1-n1cccn1	TGI	> 64.1 µM
Cc1[nH]c(-c2cc(N)ccc2Cl)c2c1C(=O)CCCC2	TGI	> 100 µM
CCOC(=O)/C(I)=C/c1cc(OC)c(OC)c(OC)c1	TGI	12.5 µM
CC1c2ccccc2CCN1c1ccc(CO)c(Cl)c1 (stereo not given)	TGI	12.6 µM
C[N+](C)(C)c1ncnc2c1ncn2C1CCCO1 (stereo not given)	TGI	> 100 µM
CN1CCc2nc3sc(C(N)=O)c(N)c3c(-c3cccs3)c2C1	TGI	> 100 µM
N#CC1(C#N)C(c2ccccc2)C=CC12OCCCO2 (stereo not given)	TGI	> 100 µM
Cc1cc2c(c(C(N)=O)c1C)-c1cc(Cl)cc(Cl)c1C2=O	TGI	> 100 µM
CCOC(=O)C1CCCCN1C(=O)Cc1c[nH]c2ccccc12 (stereo not given)	TGI	> 100 µM
CSc1c(C#N)c(N)n(-c2ccc(Cl)cc2)c(=O)c1C#N	TGI	> 100 µM
O=C(Nc1ccccc1OC(=O)c1ccccc1)c1ccccc1	TGI	> 100 µM
O=C1c2ccccc2N2OC3(N4CCCC4)CCCCC3C12c1ccccc1 (stereo not given)	TGI	27.6 µM
c1cc(-c2cn3c(n2)SCC3)ccn1	TGI	> 60.4 µM
CCOC(=O)Cn1nnc2ccc(Nc3nc4ccccc4nc3-c3ccccc3)cc21	TGI	> 100 µM
COc1cc(Oc2nc3ccc(C(F)(F)F)cc3nc2-c2ccccc2)cc(OC)c1OC	TGI	31.4 µM
